Each entry below carries its recorded Number CE Diameter D90.
# Method: Particle size distribution of ORZY-05 by static automated imaging (Morphologi 4)
# Assay type: physicochemical
# Condition details: ORZY-05 particles
Quantity kind: Number CE Diameter D90

{"Molecule": "O=C(O)CC(O)(CC(=O)O)C(=O)O.[O-][n+]1cccc(/C(Cl)=N/OC[C@H](O)CN2CCCCC2)c1 [18-002, arimoclomol citrate]", "Result": "10.10 μm"}
{"Molecule": "O=C(O)CC(O)(CC(=O)O)C(=O)O.[O-][n+]1cccc(/C(Cl)=N/OC[C@H](O)CN2CCCCC2)c1 [18-004, arimoclomol citrate]", "Result": "29.20 μm"}
{"Molecule": "O=C(O)CC(O)(CC(=O)O)C(=O)O.[O-][n+]1cccc(/C(Cl)=N/OC[C@H](O)CN2CCCCC2)c1 [17-004, arimoclomol citrate]", "Result": "23.50 μm"}
{"Molecule": "O=C(O)CC(O)(CC(=O)O)C(=O)O.[O-][n+]1cccc(/C(Cl)=N/OC[C@H](O)CN2CCCCC2)c1 [18-003, arimoclomol citrate]", "Result": "38.20 μm"}
{"Molecule": "O=C(O)CC(O)(CC(=O)O)C(=O)O.[O-][n+]1cccc(/C(Cl)=N/OC[C@H](O)CN2CCCCC2)c1 [17-002, arimoclomol citrate]", "Result": "7.40 μm"}
{"Molecule": "O=C(O)CC(O)(CC(=O)O)C(=O)O.[O-][n+]1cccc(/C(Cl)=N/OC[C@H](O)CN2CCCCC2)c1 [compound 1002, arimoclomol citrate]", "Result": "15.01 μm"}
